Source listed as patent US20250320278A1.

system_name: T1, SARS-CoV-2 N protein, full-length (SARS-CoV-2, UniProt P0DTC9 1-419)
T1 construct: mature; also called SARS-CoV-2 nucleoprotein
experiment_summary: Octet (BLI) kinetics
pKd: −log10 of the molar value.
Please mark 1.0 if the recorded pKd is equal to or greater than 9, and 0.0 if it falls below.

Solved entries:
binder="NP3-A7 (antibody, V domains shown) VH: QIQLVQSGAELVKPGASVKLSCTASGFNIKDTYIHWVRQRPEQGLEWIGRIDPANGDTKYDPKFQDKATLIADTSSNTAYLQLGSLTSEDTAVYYCARYRIYYFDYWGQGTTLTVSS VL: DIQMTQSPASVPVTPGESVSISCRSSKSLLHSNGNTYVYWFLQRPGQSPRLLIYRMSNLASGVPDRFSGSGSGTAITLRISRVEAEDVGVYSCMQHLEYPLTFGAGTKLEIK" group=0.0
binder="NP3-E6 (antibody, V domains shown) VH: EVQLQQSGAELMRPGASVKISCKATGYTFSSYWIEWVKQRPGHGLEWIGEILPGSDNTNYNEKFKGKATLTADTSSNTAYMHLSSLTSEDSAVYSCARRLFLRRYFDVWGAGTTVTVSS VL: DIVLTQSPASLALSLGQRATISCKASQSVDYDGDSYMNWYQQKPGQPPKLLISAASNLESGIPARFGGSGSGTDFTLNIHPVEEEDAATYYCQQSNEDPFTFGGGTKLEIK" group=1.0

Now take the following binder into account.
Lookup: Is it the case that NP3-G8 (antibody, V domains shown) VH: QVQLQQSGPELKKPGETVKISCKASGYTFTDYSMHWVKQAPGKGLKWLGWKNTESGEETFADDFKGRFDFSLETSASTVYLQIKNLKNEDTAAYFCARSGDIYAMDYWGQGTTVTVSS VL: ENVLTQSPASLAVSLGQRATISCKASQSVDYDGGSYMNWYQQKPGQPPKLLIYAASTLESGIPAGFSGSGSGTDFTLNIHPVEEEDAATYYCQQSNEDPWTFGGGTKLEIK has pKd reaching or exceeding 9?
Found: 0.0
